tested on: HCT 116 cells; experiment: MTT antiproliferative assay, HCT 116; type: cell-based; settings: Homo sapiens, 72 h, mean of three independent experiments, cutoff 10 µM, read-out: IC50 (Mean + SEM)
Endpoint label: IC50

>>> reported_value("O=C(O)/C=C/c1ccc(O)c(O)c1 [Compound 5, caffeic acid]")
"≥ 10 µM"
>>> reported_value("O=c1[nH]cc(F)c(=O)[nH]1 [Compound 5-FU, 5-Fluorouracil, reference compound]")
"4.6 µM"
>>> reported_value("COc1ccc(CCCO[C@@H]2O[C@H](CO)[C@@H](O)[C@H](O)[C@H]2O)cc1 [Compound 3]")
"≥ 10 µM"
>>> reported_value("COC(=O)c1ccc(O[C@@H]2O[C@H](CO)[C@@H](O)[C@H](O)[C@H]2O)c(OC)c1 [Compound 2]")
"≥ 10 µM"
>>> reported_value("COC(=O)/C=C\\c1ccc(O[C@@H]2O[C@H](CO)[C@@H](O)[C@H](O)[C@H]2O)cc1 [Compound 1]")
"≥ 10 µM"

Input: Report IC50, nothing else, for this molecule: O=C1N[C@H]2[C@H](O)[C@H](O)[C@@H](O)[C@H](O)[C@@H]2c2cc3c(c(O)c21)OCO3 [Compound 7, pancratistatin]
Output: 0.1 µM
